Biological target: T1, CRBN, Q96SW2;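 further: pooled lentiviral library of zinc finger degron-EGFP fusions in mCherry-positive Jurkat cells, FACS-sorted after compound exposure, with degron abundance counted by next-generation sequencing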
T1 chain: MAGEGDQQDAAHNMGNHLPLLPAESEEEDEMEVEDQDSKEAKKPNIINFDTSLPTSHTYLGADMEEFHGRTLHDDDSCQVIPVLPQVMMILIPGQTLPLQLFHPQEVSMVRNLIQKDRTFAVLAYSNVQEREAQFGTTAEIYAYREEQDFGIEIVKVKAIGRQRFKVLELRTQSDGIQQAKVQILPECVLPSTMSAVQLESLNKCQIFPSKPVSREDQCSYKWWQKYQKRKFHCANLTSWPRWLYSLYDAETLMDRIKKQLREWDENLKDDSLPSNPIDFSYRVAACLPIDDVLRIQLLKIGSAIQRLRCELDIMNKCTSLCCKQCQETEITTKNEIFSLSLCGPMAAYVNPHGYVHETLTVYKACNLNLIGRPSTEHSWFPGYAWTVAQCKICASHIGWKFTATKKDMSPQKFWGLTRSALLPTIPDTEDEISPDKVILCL
Test: log2 fold change of degron read counts, EGFP-low vs EGFP+ sorted cells (limma voom), compound-induced degradation; higher = more compound-induced degradation of the degron-EGFP fusion; degrons are variants of IKZF1/3 zinc finger 2; compound dose not given here
Conditions: Jurkat; 18 h; compound: thalidomide
In all, about 8,300 sequences were measured (“log2 fold change of degron read counts, EGFP-low vs EGFP+ sorted cells (limma voom), compound-induced degradation”: median about -1.1, highest 2% from about 3.2 on). This is one part of a sample in which the highest values are shown more often than they occur.
Please mark met if the recorded log2 fold change of degron read counts is equal to or greater than 0.4, and not met if it falls below.

# bool: log2 fold change of degron read counts of FYCNVCGAPFTQKGNLLRHIKL [46F_47Y_49N_50V_52G_53A_54P_55F_67L_, Q9UKT9] >= 0.4
not met

Given the entry FECPVCGAPFTQKGNLLRHIKL [46F_47E_49P_50V_52G_53A_54P_55F_67L_, Q9UKT9] , answer whether its log2 fold change of degron read counts meets or surpasses 0.4.
met

Textbook exercise: given the entry FVCEVCGAMFTQKGNLLRHIKL [46F_47V_49E_50V_52G_53A_54M_55F_67L_, Q9UKT9] , state whether its log2 fold change of degron read counts is greater than or equal to 0.4.
met

Decide: is the reported value of log2 fold change of degron read counts for LCCNQCGFECTQKGNLLRHIKL [46L_47C_49N_50Q_52G_53F_54E_55C_67L_, Q9UKT9] equal to or greater than 0.4?
not met

I'd appreciate it if you could say whether FICNVCGACFTQKGNLLRHIKL [46F_47I_49N_50V_52G_53A_54C_55F_67L_, Q9UKT9] has log2 fold change of degron read counts at least equal to 0.4.
met

Could you verify whether the entry FNCDVCGAPFTQKGNLLRHIKL [46F_47N_49D_50V_52G_53A_54P_55F_67L_, Q9UKT9] shows log2 fold change of degron read counts of no less than 0.4?
not met

Record FYCDVCGAPFTQKGNLLRHIKL [46F_47Y_49D_50V_52G_53A_54P_55F_67L_, Q9UKT9] ; criterion: log2 fold change of degron read counts no lower than 0.4. Met?
not met

# check: log2 fold change of degron read counts of FYCPVCGAPFTQKGNLLRHIKL [46F_47Y_49P_50V_52G_53A_54P_55F_67L_, Q9UKT9] is greater than or equal to 0.4
met
